Test: Susceptibility of compound to hydrolysis at 37 degrees C for RPMI-10% human serum
Type: ADME
Details: RPMI with 10% human serum
half-life listing for selected molecules.

// solved cases for half-life follow
molecule	half-life
CCN(CCCC(C)Nc1ccnc2cc(Cl)ccc12)CCOC(=O)CCCCCC1=C(C)C(=O)c2ccccc2C1=O (centres undefined)	> 80 h
COC(=O)CCCCCC1=C(C)C(=O)c2ccccc2C1=O	> 3 h
CC1=C(CCCCC(=O)OCc2cc(NC(=O)CN3CCCCC3)cc(Nc3ccnc4cc(Cl)ccc34)c2)C(=O)c2c(O)cccc2C1=O	> 80 h

We now examine a further molecule.
Q) Let me know recorded half-life for "CC1=C(CCCCCC(=O)OCc2cc(NC(=O)CN3CCCCC3)cc(Nc3ccnc4cc(Cl)ccc34)c2)C(=O)c2ccccc2C1=O" , thanks.
A) > 80 h
